Biological target: S. pneumoniae neuraminidase (NanA) (Streptococcus pneumoniae)
Construct: residues 116-1035 of S. pneumoniae D39 sialidase A precursor (NanA); made in house; host or cells: E. coli BL21(DE3), pET28a
Experiment: Neuraminidase assay with fluorogenic substrate MNN, NanA
Format: biochemical
Details: IC50 against NanA, hydrolyzed version of oseltamivir
Description: Neuraminidase assay. Neuraminidase activity of NanA was detected using the fluorogenic substrate 2′-(4-methylumbelliferyl)-α-D-N-acetylneuraminic acid (MNN, Sigma). Reactions contained 1.5 mM MNN, 1 nM of NanA in 2.5 mM sodium phosphate buffer (pH 5). Reactions were allowed to incubate for 2 h at 37° C. before fluorescence intensity was measured at excitation and emission wavelengths of 360 nm and 465 nm in a Tecan microplate reader (Männedorf, Switzerland). […]
Property: IC50 (µM)
State just the number; it will be interpreted in µM.

// fetch S. pneumoniae neuraminidase (NanA) (Streptococcus pneumoniae) IC50 for CCOC(=O)C1=C[C@@H](OC(CC)CC)[C@H](NC(C)=O)[C@@H](N)C1 [Oseltamivir, oseltamivir, reference compound]
2000

====

Molecular target: S. pneumoniae neuraminidase (NanA) (Streptococcus pneumoniae, UniProt P62575)
Construct: residues 116-1035 of S. pneumoniae D39 sialidase A precursor (NanA); made in house; host or cells: E. coli BL21(DE3), pET28a
Sequence (P62575 116-1035): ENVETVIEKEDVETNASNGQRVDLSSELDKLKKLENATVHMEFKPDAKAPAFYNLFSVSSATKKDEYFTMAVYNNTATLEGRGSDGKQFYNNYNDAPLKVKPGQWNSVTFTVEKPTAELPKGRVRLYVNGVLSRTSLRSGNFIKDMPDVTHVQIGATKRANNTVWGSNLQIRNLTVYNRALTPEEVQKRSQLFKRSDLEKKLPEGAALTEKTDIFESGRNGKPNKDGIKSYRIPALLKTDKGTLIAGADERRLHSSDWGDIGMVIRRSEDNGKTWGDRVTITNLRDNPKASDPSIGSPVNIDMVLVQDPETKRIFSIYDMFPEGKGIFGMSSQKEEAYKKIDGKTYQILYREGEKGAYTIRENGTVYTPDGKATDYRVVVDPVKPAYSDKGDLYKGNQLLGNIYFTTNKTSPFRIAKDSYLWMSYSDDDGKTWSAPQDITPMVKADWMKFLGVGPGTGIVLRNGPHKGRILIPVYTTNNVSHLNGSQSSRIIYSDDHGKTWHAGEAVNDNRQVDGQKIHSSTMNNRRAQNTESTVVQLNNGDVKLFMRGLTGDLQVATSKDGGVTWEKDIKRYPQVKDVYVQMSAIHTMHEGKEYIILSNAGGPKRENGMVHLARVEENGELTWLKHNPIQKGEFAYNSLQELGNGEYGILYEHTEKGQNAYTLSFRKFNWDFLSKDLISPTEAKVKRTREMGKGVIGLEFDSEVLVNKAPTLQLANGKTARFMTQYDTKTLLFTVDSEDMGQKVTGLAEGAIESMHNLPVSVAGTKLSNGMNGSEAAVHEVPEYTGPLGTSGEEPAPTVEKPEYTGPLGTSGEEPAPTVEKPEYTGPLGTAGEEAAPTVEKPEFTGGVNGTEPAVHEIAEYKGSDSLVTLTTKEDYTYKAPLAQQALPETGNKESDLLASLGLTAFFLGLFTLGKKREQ
Test: Neuraminidase assay with fluorogenic substrate MNN, NanA
Assay type: biochemical
Property: pIC50
// pIC50 is dimensionless: -log10 of concentration (M)

For CC(=O)N[C@H]1[C@H]([C@H](O)[C@H](O)CO)OC(O)(C(=O)O)C[C@@H]1O (stereo partly shown) [NANA, N-acetylneuraminic acid, reference compound] , what is its reported pIC50?
3.22

====

Target: S. pneumoniae neuraminidase (NanA) (Streptococcus pneumoniae)
Construct: residues 116-1035 of S. pneumoniae D39 sialidase A precursor (NanA); made in house; host or cells: E. coli BL21(DE3), pET28a
Assay: Neuraminidase assay with fluorogenic substrate MNN, NanA
Assay type: biochemical
Settings: IC50 for the S. pneumoniae neuraminidase, Example 1; dose response fitted with power-based trend line
Property: IC50 (µM)
State just the number; it will be interpreted in µM.

For `COc1ccc([C@H]2[C@H](C(=O)c3ccc(Cl)cc3)C(=O)C(=O)N2c2cccc(C(=O)O)c2)cc1` , what is its reported IC50?
8.5
